Target: T1, full-length untagged human GPNMB expressed on cells (human, UniProt Q14956 23-572)
T1 sequence: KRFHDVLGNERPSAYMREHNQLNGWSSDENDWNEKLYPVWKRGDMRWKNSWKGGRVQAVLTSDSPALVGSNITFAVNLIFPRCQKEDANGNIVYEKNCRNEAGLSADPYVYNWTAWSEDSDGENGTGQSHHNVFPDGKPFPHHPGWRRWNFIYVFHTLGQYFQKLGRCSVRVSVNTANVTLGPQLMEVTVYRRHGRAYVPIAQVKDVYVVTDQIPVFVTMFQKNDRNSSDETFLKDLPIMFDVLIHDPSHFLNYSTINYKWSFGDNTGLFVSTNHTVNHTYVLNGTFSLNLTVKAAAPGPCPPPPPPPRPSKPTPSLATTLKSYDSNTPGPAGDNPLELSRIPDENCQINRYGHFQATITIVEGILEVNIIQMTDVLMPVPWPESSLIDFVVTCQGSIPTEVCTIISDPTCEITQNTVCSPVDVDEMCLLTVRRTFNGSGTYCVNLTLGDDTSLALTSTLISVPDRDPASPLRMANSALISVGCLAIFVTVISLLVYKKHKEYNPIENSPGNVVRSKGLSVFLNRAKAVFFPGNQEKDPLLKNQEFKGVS
Test: cell-based or functional assay
EXPERIMENTAL READOUT: GCase (FoB)
One number for each entry, in FoB.

# return GCase (FoB) for each item in the list
1. anti-GPNMB antibody GPN-08 (antibody, human IgG1, V domains shown, chimeric) VH: QVQLQQPGAELVKPGASVKLSCRASGYTFTSYWLHWVKQRPGQGLEWIGEINPSDGRTNYIEKVKTKATLTVDKSSSTAYMQLSSLTSEDSAVYYCARSGGNYAWFAYWGQGTLVTVSA VL: DIVMTQSHKFMSTSVGDRVSITCKASQDVSPSVAWYQQRPGQSPKLLIYSASYRYTGVPDRFTGSGSGTDFTFTISSVQAEDLAVYYCQQHYSIPLTFGAGTKLELK
2. anti-GPNMB antibody GPN-43 (antibody, human IgG1, V domains shown, chimeric) VH: EVQLQQSGPELVKPGASVKISCKASGYTFTDYYMNWVRQSHGKSLEWIGDINPYHGGSTYNQKIKVKATLTVDKSSSTAYMELRSLTSEDSAVYYCARNWPYFDYWGQGTTLTVSS VL: DIQMTQSPASLSASVGETVTITCRASENIYSFLVWYQQKQGKSPQLLVYNAKTLAEGVPSRFSGSGSGTQFSLKISSLQPEDFGSYYCQHHFGTPPYTFGGGTKLEIK
3. anti-GPNMB antibody GPN-24 (antibody, human IgG1, V domains shown, chimeric) VH: QVQLQQPGAELVKPGASVKMSCKASGYTFTSYWITWVKQRPGQGLEWIGDIHPGSGRSNYNEKFKNKATLNVDTSSSTVYMQLSSLTSEDSAVYYCARDYLFAYWGQGTLVTVSA VL: DIQMTQSPSSLSASLGERVSLTCRASQEISGYLSWLQQKPDGTIKRLIYSTSTLDSGVPKRFSGSRSGSDYSLTISSLESEDFADYYCLQYTSSPPTFGGGTKLEIK

1. 1.18
2. 1.01
3. 1.22
